Test system: Escherichia coli ATCC 25922
Type: cell-based
condition parameters: ATCC 25922
*1 amine or outer side, *2 acyl side, *3 side chain or, on linkers, in order; H or OH if unused. Where a SMILES comes first, the peptide text is derived from it. Bridges are numbered along the chain shown (N, C = ends). [ ]: non-standard residue; d: D form. Tle = CC(C)(C)[C@H](N)C(=O)O; dDab = NCC[C@@H](N)C(=O)O; NMeA = CN[C@@H](C)C(=O)O; Orn = NCCC[C@H](N)C(=O)O; Dab = NCC[C@H](N)C(=O)O; Dap = NC[C@H](N)C(=O)O; CO = O=C([*:1])[*:2]
reported endpoint: Escherichia coli ATCC 25922 MIC (µg/mL)
A number alone suffices; assume µg/mL.

Study these solved cases before continuing.
CC(C)C[C@@H]1NC(=O)[C@@H]2CCCN2C(=O)[C@H]2CCCN2C(=O)[C@H](CO)NC(=O)[C@@H]2CNC(=O)C[C@H](NC1=O)C(=O)N[C@@H](Cc1ccc(O)cc1)C(=O)N[C@@H](CCN)C(=O)N[C@@H](CCCN)C(=O)N[C@H](CCN)C(=O)N[C@@H](CCN)C(=O)N[C@@H](Cc1c[nH]c3ccccc13)C(=O)N[C@@H](CCN)C(=O)N[C@@H](C(C)(C)C)C(=O)N2 [Example 21] (cyclo(LDY[Dab][Orn][dDab][Dab]W[Dab][Tle][Dap]S[dP]P); lactam 2-11) = 2
CC(C)[C@@H]1NC(=O)[C@H](C)N(C)C(=O)[C@H]2CCCN2C(=O)[C@H](CO)NC(=O)[C@@H]2CSSC[C@H](NC1=O)C(=O)N[C@@H](Cc1ccc(O)cc1)C(=O)N[C@@H](CCN)C(=O)N[C@@H](CN)C(=O)N[C@H](CCN)C(=O)N[C@@H](CCN)C(=O)N[C@@H](Cc1c[nH]c3ccccc13)C(=O)N[C@@H](CCN)C(=O)N[C@@H](C(C)(C)C)C(=O)N2 [Example 9] (cyclo(CS[dP][NMeA]VCY[Dab][Dap][dDab][Dab]W[Dab][Tle]); disulfide 1-6) = 0.5
CC(C)C[C@@H]1NC(=O)[C@@H]2CCCN2C(=O)[C@H]2CCCN2C(=O)[C@H](CO)NC(=O)[C@@H]2CCC(=O)NC[C@H](NC1=O)C(=O)N[C@@H](Cc1ccc(O)cc1)C(=O)N[C@@H](CCN)C(=O)N[C@@H](CCCN)C(=O)N[C@H](CCN)C(=O)N[C@@H](CCN)C(=O)N[C@@H](Cc1c[nH]c3ccccc13)C(=O)N[C@@H](CCN)C(=O)N[C@@H](C(C)(C)C)C(=O)N2 [Example 29] (cyclo(L[Dap]Y[Dab][Orn][dDab][Dab]W[Dab][Tle]ES[dP]P); lactam 2-11) = 1

Record request: Escherichia coli ATCC 25922 MIC value, item CC(C)[C@@H]1NC(=O)[C@@H]2CCCN2C(=O)[C@H]2CCCN2C(=O)[C@H](CO)NC(=O)[C@@H]2CNC(=O)NC[C@H](NC1=O)C(=O)N[C@@H](Cc1ccc(O)cc1)C(=O)N[C@@H](CCN)C(=O)N[C@@H](CN)C(=O)N[C@H](CCN)C(=O)N[C@@H](CCN)C(=O)N[C@@H](Cc1c[nH]c3ccccc13)C(=O)N[C@@H](CCN)C(=O)N[C@@H](C(C)(C)C)C(=O)N2 [Example 40] (cyclo(V[Dap]Y[Dab][Dap][dDab][Dab]W[Dab][Tle][Dap]S[dP]P); linker 2-11 via CO) 0.25

Next compound up: C[C@@H]1NC(=O)[C@H](C(C)(C)C)NC(=O)[C@H](CCN)NC(=O)[C@H](Cc2c[nH]c3ccccc23)NC(=O)[C@H](CCN)NC(=O)[C@@H](CCN)NC(=O)[C@H](CCCN)NC(=O)[C@H](CCN)NC(=O)[C@H](Cc2ccc(O)cc2)NC(=O)[C@H](CN)NC(=O)[C@H](Cc2ccccc2)NC(=O)[C@H](Cc2ccccc2)NC(=O)[C@H]2CCCN2C(=O)[C@H](CO)NC1=O [Example 43] (cyclo(AS[dP]FF[Dap]Y[Dab][Orn][dDab][Dab]W[Dab][Tle])) 1
